- System: P19
- protocol text: Induction of neurite outgrowth in mouse P19 cells transfected with neuroD2 at 10 uM after 48 hrs by DAPI staining based confocal fluorescence image analyzer relative to control
- Assay type: functional
Recorded fold change (FC) for the following compounds

# molecule, system, fold change (FC)
measured = [
    ("COc1ccccc1N(CC(=O)Nc1cnc2ccccc2c1)S(=O)(=O)c1ccc(C)cc1", "P19", 3.6),
    ("CCOc1ccccc1NC(=O)CN(c1ccccc1Cl)S(=O)(=O)c1ccc(C)cc1", "P19", 2.6),
    ("COc1ccncc1NC(=O)CN(c1ccccc1OC)S(=O)(=O)c1ccc(SC)cc1", "P19", 3.9),
    ("CCc1ccccc1NC(=O)CN(c1ccccc1OC)S(=O)(=O)c1ccc(C)cc1", "P19", 0.8),
    ("COc1ccc(S(=O)(=O)N(CC(=O)Nc2cc(OC)ccc2OC)c2ccccc2OC)cc1", "P19", 2.3),
    ("COc1ccncc1NC(=O)CN(c1ccccc1OC)S(=O)(=O)c1ccc(Br)cc1", "P19", 3.7),
    ("CCOc1ccccc1NC(=O)CN(c1ccccc1)S(=O)(=O)c1ccc(C)cc1", "P19", 2.5),
    ("COc1cccc(NC(=O)CN(c2ccccc2OC)S(=O)(=O)c2ccc(C)cc2)c1", "P19", 1.8),
    ("CCOc1ccccc1NC(=O)CN(c1cccc(OC)c1)S(=O)(=O)c1ccc(C)cc1", "P19", 3.1),
    ("COc1ccccc1N(CC(=O)Nc1ccccc1Br)S(=O)(=O)c1ccc(C)cc1", "P19", 2.1),
]

---

- Tested on: P19
- protocol text: Induction of neurite outgrowth in mouse P19 cells transfected with neuroD2 at 10 uM after 48 hrs by DAPI staining based confocal fluorescence image analyzer relative to control
- Type: functional

# molecule, fold change (FC)
records = [
    ("COc1ccccc1N(CC(=O)Nc1cccc2ncccc12)S(=O)(=O)c1ccc(C)cc1", 1.3),
    ("COc1ccccc1N(CC(=O)Nc1cccnc1OC(C)C)S(=O)(=O)c1ccc(C)cc1", 2.3),
    ("COc1ccc(OC)c(NC(=O)CN(c2ccccc2OC)S(=O)(=O)c2ccc(Br)cc2)c1", 5),
    ("COc1ccccc1N(CC(=O)Nc1ccc2ncccc2c1)S(=O)(=O)c1ccc(C)cc1", 1),
    ("COc1ccccc1N(CC(=O)Nc1ccccc1F)S(=O)(=O)c1ccc(C)cc1", 2.1),
    ("COc1ccccc1N(CC(=O)Nc1cccnc1OC)S(=O)(=O)c1ccc(C)cc1", 2.8),
    ("COc1ccccc1N(CC(=O)Nc1ccccc1)S(=O)(=O)c1ccc(C)cc1", 2),
    ("COc1ccc(NC(=O)CN(c2ccccc2OC)S(=O)(=O)c2ccc(C)cc2)c(OC)c1", 2.7),
]

---

- Test system: P19
- protocol text: Induction of neurite outgrowth in mouse P19 cells transfected with neuroD2 at 10 uM after 48 hrs by DAPI staining based confocal fluorescence image analyzer relative to control
- Type: functional
Mark each entry 1 if its fold change (FC) sits below 3, and 0 for all others.

# molecule, system, classification
measured = [
    ("COc1ccc(OC)c(NC(=O)CN(C(=O)c2ccc(Cl)cc2)c2ccccc2OC)c1", "P19", 1),
    ("COc1ccc(OC)c(NC(=O)CN(c2ccccc2OC)S(=O)(=O)c2ccc(F)cc2)c1", "P19", 1),
    ("COc1ccncc1NC(=O)CN(c1ccccc1OC)S(=O)(=O)c1ccc(C)cc1", "P19", 0),
    ("CCOc1ncccc1NC(=O)CN(c1ccccc1OC)S(=O)(=O)c1ccc(C)cc1", "P19", 1),
    ("CCOc1ccccc1NC(=O)CN(c1ccccc1F)S(=O)(=O)c1ccc(C)cc1", "P19", 1),
    ("COc1ccc(OC)c(NC(=O)CN(c2ccccc2OC)S(=O)(=O)c2ccc(SC)cc2)c1", "P19", 0),
    ("CCOc1ccccc1NC(=O)CN(c1ccccc1C)S(=O)(=O)c1ccc(C)cc1", "P19", 1),
    ("COc1ccc(NC(=O)CN(c2ccccc2OC)S(=O)(=O)c2ccc(Cl)cc2)c(OC)c1", "P19", 0),
    ("COc1ccccc1N(CC(=O)Nc1ncccc1OC)S(=O)(=O)c1ccc(C)cc1", "P19", 1),
]
